The values you see were collected from ChEMBL document CHEMBL3739347.

system: Puccinia triticina; assay: Antifungal activity against Puccinia recondita f. sp. tritici infected in wheat seedlings at 10 ppm relative to control; format: functional
Metric name: Activity (%)

Compound	Target or system	Reading
O=c1c(-n2cccn2)nc(Cl)c(-c2c(F)cc(F)cc2F)n1-c1cccc(Cl)c1	Puccinia triticina	99
CC[C@H](C)Cn1c(-c2c(F)cc(OC)cc2F)c(Cl)nc(-n2cccn2)c1=O	Puccinia triticina	100
CC[C@H](C)Cn1c(-c2c(F)cccc2F)c(Cl)nc(-n2ccnc2)c1=O	Puccinia triticina	0
CC(C)Cn1c(-c2c(F)cccc2F)c(Br)nc(-n2cccn2)c1=O	Puccinia triticina	88
CCC(C)Cn1c(-c2c(F)cc(F)cc2F)c(Cl)nc(-n2cccn2)c1=O (configuration not stated)	Puccinia triticina	100
O=c1c(-n2cccn2)nc(Cl)c(-c2c(F)cc(F)cc2F)n1CC(F)(F)C(F)(F)C(F)(F)F	Puccinia triticina	96
CC(C)Cn1c(-c2c(F)cccc2F)c(Cl)nc(-c2cnccn2)c1=O	Puccinia triticina	0
O=c1c(-n2cccn2)nc(Cl)c(-c2c(F)cc(F)cc2F)n1CC1CC1	Puccinia triticina	100
CCCCn1c(-c2c(F)cc(F)cc2F)c(Cl)nc(-n2cccn2)c1=O	Puccinia triticina	88
O=c1c(-n2cccn2)nc(Cl)c(-c2c(F)cc(F)cc2F)n1CC(F)(F)C(F)(F)F	Puccinia triticina	99
CC(C)Cn1c(-c2ccc(F)cc2Cl)c(Cl)nc(-n2cccn2)c1=O	Puccinia triticina	100
C=CCn1c(-c2c(F)cc(F)cc2F)c(Cl)nc(-n2cccn2)c1=O	Puccinia triticina	89
O=c1c(-n2cccn2)nc(Cl)c(-c2c(F)cc(F)cc2F)n1C1CCCCC1	Puccinia triticina	89
CC[C@H](C)Cn1c(-c2c(F)cccc2F)c(Cl)nc(-n2nc(C)cc2C)c1=O	Puccinia triticina	0
CC[C@H](C)Cn1c(-c2c(F)cccc2F)c(Cl)nc(-n2ccnn2)c1=O	Puccinia triticina	67
Cc1nc(-n2cccn2)c(=O)n(CC(C)C)c1-c1c(F)cccc1F	Puccinia triticina	92
CC(C)Cn1c(-c2c(F)cccc2F)c(Cl)nc(-c2nccs2)c1=O	Puccinia triticina	0
CC[C@H](C)Cn1c(-c2c(F)cc(OCCN(C)C)cc2F)c(Cl)nc(-n2cccn2)c1=O	Puccinia triticina	55
O=c1c(-n2cccn2)nc(Cl)c(-c2c(F)cc(F)cc2F)n1-c1ccccc1	Puccinia triticina	87
O=c1c(-n2cccn2)nc(Cl)c(-c2c(F)cc(F)cc2F)n1-c1ccccc1Cl	Puccinia triticina	100
CC[C@H](C)Cn1c(-c2c(F)cccc2F)c(Cl)nc(C(N)=O)c1=O	Puccinia triticina	99
CC[C@H](C)Cn1c(-c2c(F)cc(F)cc2F)c(Cl)nc(-n2cccn2)c1=O	Puccinia triticina	100
CC(C)Cn1c(-c2c(F)cccc2F)c(Cl)nc(-n2cccn2)c1=O	Puccinia triticina	100
CC(C)Cn1c(-c2c(F)cccc2F)cnc(-n2cccn2)c1=O	Puccinia triticina	0
CC(C)Cn1c(-c2c(F)cc(F)cc2F)c(Cl)nc(-n2cccn2)c1=O	Puccinia triticina	100
CC[C@H](C)Cn1c(-c2c(F)cccc2F)c(Cl)nc(C(=O)NC)c1=O	Puccinia triticina	74
CC[C@H](C)Cn1c(-c2c(F)cc(OCCCNC)cc2F)c(Cl)nc(-n2cccn2)c1=O.Cl	Puccinia triticina	99

----------
test system: Botrytis cinerea; test: Antifungal activity against Botryotinia fuckeliana infected in orange pixie tomato seedlings at 2 ppm relative to control; type: functional

Smi	Target or system	Activity [%]
CC[C@H](C)Cn1c(-c2c(F)cc(OCCCN(C)C)cc2F)c(Cl)nc(-n2cccn2)c1=O	Botrytis cinerea	0
CC[C@H](C)Cn1c(-c2c(F)cccc2F)c(Cl)nc(C(N)=O)c1=O	Botrytis cinerea	92
CC(C)Cn1c(-c2c(F)cccc2F)c(Cl)nc(-c2nccs2)c1=O	Botrytis cinerea	0
CC(C)Cn1c(-c2c(F)ccc(F)c2F)c(Cl)nc(-n2cccn2)c1=O	Botrytis cinerea	94
CC[C@H](C)Cn1c(-c2c(F)cccc2F)c(Cl)nc(C(=O)NC)c1=O	Botrytis cinerea	57
CC(C)Cn1c(-c2c(F)cc(F)cc2F)c(Cl)nc(-n2cccn2)c1=O	Botrytis cinerea	100
CC(C)Cn1c(-c2c(F)cccc2F)c(Cl)nc(-c2cn(C)cn2)c1=O	Botrytis cinerea	0

----------
test system: Parastagonospora nodorum; experiment: Antifungal activity against Stagonospora nodorum infected in wheat seedlings at 200 ppm relative to control; format: functional
// values below are reported Activity

Compound	Unit annotation	Activity
CC(=O)Nc1nc(Cl)c(-c2c(F)cccc2F)n(CC(C)C)c1=O	%	0
CC(C)Cn1c(-c2c(F)cccc2F)c(Cl)nc(-c2nccn2C)c1=O	%	0
CC(C)Cn1c(-c2c(F)cccc2F)c(Cl)nc(-c2cnccn2)c1=O	%	98
CC[C@H](C)Cn1c(-c2c(F)cccc2F)c(Cl)nc(-n2cncn2)c1=O	%	100
CC(C)Cn1c(-c2c(F)cc(F)cc2F)c(Cl)nc(-n2cccn2)c1=O	%	100
CC(=O)O[C@H]1C(=O)[C@@]2(C)[C@H]([C@H](OC(=O)c3ccccc3)[C@]3(O)C[C@H](OC(=O)[C@H](O)[C@@H](NC(=O)c4ccccc4)c4ccccc4)C(C)=C1C3(C)C)[C@]1(OC(C)=O)CO[C@@H]1C[C@@H]2O	%	91
CC(C)Cn1c(C(C)C)c(Cl)nc(-n2cccn2)c1=O	%	0
CC[C@H](C)Cn1c(-c2c(F)cccc2F)c(Cl)nc(C#N)c1=O	%	0
CC[C@H](C)Cn1c(-c2c(F)cccc2F)c(Cl)nc(-n2nc(C)cc2C)c1=O	%	0
CC(C)Cn1c(-c2c(F)cccc2F)c(Br)nc(-n2cccn2)c1=O	%	100
CC(C)Cn1c(-c2c(F)cccc2F)c(Cl)nc(-c2cn(C)cn2)c1=O	%	97
CC(C)Cn1c(C(C)(C)C)c(Cl)nc(-n2cccn2)c1=O	%	0
CC[C@H](C)Cn1c(-c2c(F)cccc2F)c(Cl)nc(-n2ccnn2)c1=O	%	73
CC(C)Cn1c(C2CCCC2)c(Cl)nc(-n2cccn2)c1=O	%	0
CC[C@H](C)Cn1c(-c2c(F)cc(OCCCNC)cc2F)c(Cl)nc(-n2cccn2)c1=O.Cl	%	100
CC[C@H](C)Cn1c(-c2c(F)cccc2F)c(Cl)nc(-n2ccnc2)c1=O	%	0
CC[C@H](C)Cn1c(-c2c(F)cc(OCCCN(C)C)cc2F)c(Cl)nc(-n2cccn2)c1=O	%	94
CC(C)Cn1c(-c2ccc(F)cc2Cl)c(Cl)nc(-n2cccn2)c1=O	%	100
CCC(C)Cn1c(-c2c(F)cc(F)cc2F)c(Cl)nc(-n2cccn2)c1=O (centres undefined)	%	100

----------
tested on: Puccinia triticina; test: Antifungal activity against Puccinia recondita f. sp. tritici infected in wheat seedlings at 200 ppm relative to control; assay type: functional
Metric name: Activity

Compound	Reading
CC(C)Cn1c(-c2c(F)cc(F)cc2F)c(Cl)nc(-n2cccn2)c1=O	100%
CC(C)Cn1c(-c2ccc(F)cc2Cl)c(Cl)nc(-n2cccn2)c1=O	100%
CC(C)Cn1c(-c2c(F)cccc2F)c(Cl)nc(-c2nccn2C)c1=O	0%
CC[C@H](C)Cn1c(-c2c(F)cc(OCCCN(C)C)cc2F)c(Cl)nc(-n2cccn2)c1=O	100%
CC[C@H](C)Cn1c(-c2c(F)cccc2F)c(Cl)nc(-n2ccnn2)c1=O	73%
CCC(C)Cn1c(-c2c(F)cc(F)cc2F)c(Cl)nc(-n2cccn2)c1=O (stereo not given)	100%
CC(=O)Nc1nc(Cl)c(-c2c(F)cccc2F)n(CC(C)C)c1=O	99%
CC[C@H](C)Cn1c(-c2c(F)cccc2F)c(Cl)nc(-n2ccnc2)c1=O	0%
CC[C@H](C)Cn1c(-c2c(F)cccc2F)c(Cl)nc(-n2cncn2)c1=O	98%
CC[C@H](C)Cn1c(-c2c(F)cc(OCCCNC)cc2F)c(Cl)nc(-n2cccn2)c1=O.Cl	100%

----------
Listed below: Activity values for each entry.
test system: Botrytis cinerea; test: Antifungal activity against Botryotinia fuckeliana infected in orange pixie tomato seedlings at 2 ppm relative to control; type: functional
Metric name: Activity (%)

Compound	Metric name	Unit annotation	Reading
CCCCn1c(-c2c(F)cc(F)cc2F)c(Cl)nc(-n2cccn2)c1=O	Activity	%	0
O=c1c(-n2cccn2)nc(Cl)c(-c2c(F)cc(F)cc2F)n1-c1ccccc1	Activity	%	100
O=c1c(-n2cccn2)nc(Cl)c(-c2c(F)cc(F)cc2F)n1-c1cccc(Cl)c1	Activity	%	97
O=c1c(-n2cccn2)nc(Cl)c(-c2c(F)cc(F)cc2F)n1CC1CC1	Activity	%	98
CC(C)Cn1c(-c2c(F)cccc2F)c(Cl)nc(-n2cccn2)c1=O	Activity	%	75
CC(C)Cn1c(-c2ccc(F)cc2Cl)c(Cl)nc(-n2cccn2)c1=O	Activity	%	100
C=CCn1c(-c2c(F)cc(F)cc2F)c(Cl)nc(-n2cccn2)c1=O	Activity	%	70
CC[C@H](C)Cn1c(-c2c(F)cc(OCCCNC)cc2F)c(Cl)nc(-n2cccn2)c1=O.Cl	Activity	%	21
Cc1ccn(-c2nc(Cl)c(-c3c(F)cccc3F)n(CC(C)C)c2=O)n1	Activity	%	95
CC(Cn1c(-c2c(F)cc(F)cc2F)c(Cl)nc(-n2cccn2)c1=O)C(F)(F)F (stereo not given)	Activity	%	99
CCC(C)Cn1c(-c2c(F)cc(F)cc2F)c(Cl)nc(-n2cccn2)c1=O (stereo not given)	Activity	%	100
O=c1c(-n2cccn2)nc(Cl)c(-c2c(F)cc(F)cc2F)n1-c1ccc(Cl)cc1	Activity	%	92
Cc1nc(-n2cccn2)c(=O)n(CC(C)C)c1-c1c(F)cccc1F	Activity	%	0
O=c1c(-n2cccn2)nc(Cl)c(-c2c(F)cc(F)cc2F)n1CC(F)(F)C(F)(F)F	Activity	%	99
O=c1c(-n2cccn2)nc(Cl)c(-c2c(F)cc(F)cc2F)n1-c1ccccc1Cl	Activity	%	99
CC(C)Cn1c(-c2c(F)cccc2F)c(Cl)nc(-c2cccnc2)c1=O	Activity	%	0
O=c1c(-n2cccn2)nc(Cl)c(-c2c(F)cc(F)cc2F)n1CC(F)(F)C(F)(F)C(F)(F)F	Activity	%	38
CC[C@H](C)Cn1c(-c2c(F)cc(OC)cc2F)c(Cl)nc(-n2cccn2)c1=O	Activity	%	99
CC[C@H](C)Cn1c(-c2c(F)cc(F)cc2F)c(Cl)nc(-n2cccn2)c1=O	Activity	%	100
CC(C)Cn1c(-c2c(F)cccc2F)c(Cl)nc(-c2ccncc2)c1=O	Activity	%	0
